Source of measurements: PubChem BioAssay (NCI)

- Test system: HCT-15 colon
- protocol.details: NCI-60 one-dose screen, 48 h (100 = growth as untreated, 0 = no growth, -100 = all killed)
- assay.setup: 10 µM unless noted
About 83,000 compounds went through this panel and 20% of them were active in at least one assay; those are over-represented in the sample as a whole.
Known growth of a selection of compounds
The answer is to be given in %; state only the numeric part.

Below, 6 compounds whose answers are already recorded.
O=C(c1ccccc1)[C@H]1[C@@H]2CCCN2[C@]2(C(=O)Nc3ccc(F)cc32)[C@]12C(=O)Nc1ccccc12 ... 86.9
C=CC(C)(O)CCC1C(=C)CCC2C(C)(C)CCCC12C (centres undefined) ... 97.3
Cc1cc2nc(-c3c(N)ncc(C#N)c3-c3ccc(Cl)cc3)[nH]c2cc1C ... 67.2
CCOC(=O)c1[nH]c(-c2ccc(Cl)cc2)cc1-c1cccnc1 ... 21.8
COc1ccc(C(=O)NC(=O)Nc2ccc3c(c2)NC(=O)/C3=C\c2[nH]c(C)c(C(=O)O)c2C)cc1 ... 93.5
Nn1c(CN2CCN(c3cc4c(cc3F)c(=O)c(C(=O)O)cn4C3CC3)CC2)n[nH]c1=S ... 106

Record O=C(NCCNc1nccc(-c2c(-c3cccc(O)c3)nc3sccn23)n1)Nc1cc(C(F)(F)F)cc(C(F)(F)F)c1 . Reported growth: 79.2

Record C=C1C(=O)O[C@H]2[C@H]1CC/C(COC(=O)c1cc(OC)c(OC)c(OC)c1)=C\CC[C@@]1(C)O[C@@H]21 . Reported growth: -42.8

Record COC1OCC(OS(=O)(=O)c2ccc(C)cc2)C(OC(=O)c2ccccc2)C1OC(=O)c1ccccc1 (centres undefined) . Reported growth: 38.3

----------
- System: HT29 colon
- protocol.details: NCI-60 one-dose screen, 48 h (100 = growth as untreated, 0 = no growth, -100 = all killed)
- assay.setup: 10 µM unless noted
This is part of a sample that, as a whole, favours compounds with a hit. Of some 83,000 tested, about 20% had one in any assay.
Known growth of a selection of compounds
The answer is to be given in %; state only the numeric part.

O=C(Nc1ccc(-n2cc(-c3ccncc3)c(-c3ccc(O)c(Cl)c3)n2)cc1)Nc1ccc(Cl)c(C(F)(F)F)c1 ... 47.9
COc1cc(NC(=O)c2cc(OC)c3ccn(C)c3c2)cc2c1C[C@]1(C)CC[C@@H](O)C(C)(C)[C@H]1O2 ... 61.7

Record C[C@]12CC[C@@H]3c4ccc(O)c(N)c4CC[C@H]3[C@@H]1CC[C@@H]2O . Reported growth: 103

Record CCCCCCCC(=O)SCC/C=C/[C@@H]1CC(=O)NCc2nc(cs2)C2=N[C@@](C)(CS2)C(=O)N[C@@H](C(C)C)C(=O)N1 . Reported growth: -22.4

Record COc1ccc(Cn2cc3c(c2-c2cc(OC)c(OC)c(OC)c2)CCc2c(CO)noc2-3)cc1 . Reported growth: 8.14

Record Cc1cn([C@]2(CF)O[C@H](CO)C2C)c(=O)[nH]c1=O (some centres undefined) . Reported growth: 112

----------
- Tested on: BT-549 breast
- protocol.details: NCI-60 one-dose screen, 48 h (100 = growth as untreated, 0 = no growth, -100 = all killed)
- assay.setup: 10 µM unless noted
About 83,000 compounds went through this panel and 20% of them were active in at least one assay; those are over-represented in the sample as a whole.
Known growth of a selection of compounds
The answer is to be given in %; state only the numeric part.

COc1cc(-c2nc(SCC(=O)Nc3ccc(C(C)=O)cc3)[nH]c(=O)c2C#N)cc(OC)c1OC ... 36.8
COc1ccc(C(=O)NC(=O)Nc2ccc3c(c2)NC(=O)/C3=C\c2[nH]c(C)c(C(=O)O)c2C)c(F)c1 ... 21.7
CN(C)CC/C=C1\c2ccccc2Sc2ccc(Cl)cc21 ... 86.5

Record CCCCCCCCCCCCCCCCCCNCc1ccc(Cl)cc1 . Reported growth: 38.5

Record COc1ccc(-n2c(-c3ccc(NC(=O)CCCl)cc3)nnc2-c2cc(OC)c(OC)c(OC)c2)cc1 . Reported growth: 66.6
